Hi there, I'd appreciate the recorded T/C for every entry that follows.
Test system: CD2F1 mice, L1210 leukemia ip, survival T/C
measurement_notes: NCI In Vivo Anticancer Drug Screen. Data for tumor model L1210 Leukemia (intraperitoneal) in CD2F1 (CDF1) mice
settings: endpoint: mean survival time; dose: 200.0 mg/kg/injection; schedule: Q01DX001 (ip); vehicle: Klucel (hydroxypropylcellulose) (HPC); higher = longer survival
Toxic doses and inconclusive results are not listed.

Endpoint output: T/C of `O=c1ccc2cc(Cl)cc([N+](=O)[O-])c2o1` . Value?
99 % of control

Query (compound): `O=S(=O)(O)c1cccc2ncccc12` ; field requested: T/C
92 % of control

Which T/C reading was recorded for the compound `Cc1ccc(C#N)c2c1CCC2` ?
95 % of control

I would be grateful if you could share the reported T/C for O=C(CC(SCCN1CCOCC1)c1ccc([N+](=O)[O-])cc1)c1ccccc1 (stereo not given) .
96 % of control

Give its T/C value. Item: `CCOP(=O)(OCC)C(c1ccccc1)(c1ccccc1)c1ccccc1`
96 % of control

Using the record for `COc1ccc(Cn2cnc3c(=S)nc[nH]c32)cc1` , report its T/C.
100 % of control

Look up T/C: `Cc1ccc(S(=O)(=O)N(CCCc2c(C)nc(N)nc2Cl)c2ccccc2)cc1`
96 % of control

Which T/C is reported for this compound? `Nc1ncnc2snnc12`
96 % of control

What T/C value was documented for this compound, COc1cccc(NC(=S)NC(Cc2ccccc2)c2ccccc2)c1 (stereo not given) ?
91 % of control

// lookup T/C for `Cc1nc(=S)c2ccccc2[nH]1`
94 % of control

----------
System: CD2F1 mice, L1210 leukemia ip, survival T/C
measurement_notes: NCI In Vivo Anticancer Drug Screen. Data for tumor model L1210 Leukemia (intraperitoneal) in CD2F1 (CDF1) mice
settings: endpoint: mean survival time; dose: 50.0 mg/kg/injection; schedule: Q01DX005 (ip); vehicle: water; higher = longer survival
Toxic doses and inconclusive results are not listed.
metric_name: T/C

# T/C lookup, item NP(=O)(OCCCOCc1ccccc1)N(CCCl)CCCl (centres undefined)
100 % of control

So what's the measured T/C for this one? Nc1ccn(C2OC(CO)C3OP(=O)(O)OC32)c(=O)n1 (centres undefined)
99 % of control

Entry O=c1[nH]c(=O)n(C2CC(O)C(CO)O2)cc1S (centres undefined) has what T/C?
112 % of control

T/C lookup needed for Cn1cnc([N+](=O)[O-])c1Sc1cn(C2CC(O)C(CO)O2)c(=O)[nH]c1=O (centres undefined) , thanks.
104 % of control

----------
Tested on: CD2F1 mice, L1210 leukemia ip, survival T/C
measurement_notes: NCI In Vivo Anticancer Drug Screen. Data for tumor model L1210 Leukemia (intraperitoneal) in CD2F1 (CDF1) mice
settings: endpoint: mean survival time; dose: 100.0 mg/kg/injection; schedule: Q01DX009 (ip); vehicle: saline with Tween-80; higher = longer survival
Protocol: The antitumor activity of compounds was measured in mice bearing transplantable tumors. Survival or tumor size were measured and the results are expressed as the measurement made in the treated group (T) divided by the measurement made in the vehicle treated control group (C). The tumor model used in this assay is L1210 Leukemia (intraperitoneal) in CD2F1 (CDF1) mice
Inconclusive results and toxic doses are left out.
metric_name: T/C

Requested read-out T/C, target or system CD2F1 mice, L1210 leukemia ip, survival T/C, entry `S=P(Cc1ccccc1)(c1ccccc1)c1ccccc1`
90 % of control

I'm curious: which T/C was measured for `[N-]=[N+]=NC(=O)c1cnc(OCc2ccccc2)nc1N` tested on CD2F1 mice, L1210 leukemia ip, survival T/C?
93 % of control

Notebook: pull reported T/C for CD2F1 mice, L1210 leukemia ip, survival T/C, entry `CCNc1nc(NCC)nc(SC)n1`
89 % of control

Form: Entry = `C1=CCC(CNc2ncnc3nc[nH]c23)=CC1` | System = CD2F1 mice, L1210 leukemia ip, survival T/C | T/C = ____
100 % of control

Lookup: T/C / CD2F1 mice, L1210 leukemia ip, survival T/C / `Cc1ccc(Nc2ccc(O)c3c2C(=O)c2c(O)ccc(Nc4ccc(C)cc4)c2C3=O)cc1`
88 % of control

Field: T/C (CD2F1 mice, L1210 leukemia ip, survival T/C). Entry: CC(CC=O)P(=O)(c1ccccc1)c1ccccc1 (stereo not drawn)
94 % of control

What value of T/C on CD2F1 mice, L1210 leukemia ip, survival T/C does `O=C(CCl)Nc1cccc(Cl)c1` have?
92 % of control

Report T/C for `CCc1ncc(CO)n1Cc1ccccc1` tested on CD2F1 mice, L1210 leukemia ip, survival T/C.
100 % of control

Request: T/C, test system CD2F1 mice, L1210 leukemia ip, survival T/C, entry `CN(C)S(=O)(=O)C(C)(C)c1ccccc1`
96 % of control

Record lookup: for CD2F1 mice, L1210 leukemia ip, survival T/C, what T/C belongs to `COc1ccc(/C=N/NC(=O)CNC(=O)Nc2cccc([N+](=O)[O-])c2)cc1` ?
93 % of control

Find T/C (CD2F1 mice, L1210 leukemia ip, survival T/C) for the entry `O=C1C(=O)c2ccccc2C(O)=C1[N+](=O)[O-]`
96 % of control

Entry CCOC(=O)C1CC(=O)C(C(=O)OCC)CC1=O (stereo not drawn) , system CD2F1 mice, L1210 leukemia ip, survival T/C: what T/C was measured?
100 % of control

CD2F1 mice, L1210 leukemia ip, survival T/C / T/C / `CC1(C)CC(=O)C=C(N)C1` : value?
100 % of control
